Target: T1, mouse Sortilin expressed on 293 / HEK293T cells (mouse, UniProt Q6PHU5 74-825)
T1 construct: full-length recombinant mouse Sortilin; also called mSort; msSort
Assay: FACS, 293 cells;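 also: antibodies at 10 µg/ml bound to cells for 1 h on ice, detected with PE-labelled anti-human secondary antibody by flow cytometry, reported as mean fluorescence intensity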
Classify by measured MFI: condition met if it is equal to or exceeds 20000, condition not met if it is smaller.

Worked examples, 4 binders total:
S-55 (antibody, V domains shown, IgG) VH: QVQLQESGPGLVKPSETLSLTCAVSGYSISSGYYWGWIRQPPGKGLEWIGSIYHSGSTYYNPSLKSRVTISVDTSKNQFSLKLSSVTAADTAVYYCARGRPELGWDKYFQHWGQGTLVTVSS VL: DIQMTQSPSSVSASVGDRVTITCRASQGISRWLAWYQQKPGKAPKLLIYAASSLQSGVPSRFSGSGSGTDFTLTISSLQPEDFATYYCQQANALPTFGGGTKVEIK ... condition met
S-21 (antibody, V domains shown, IgG) VH: QVQLVQSGAEVKKPGSSVKVSCKASGGTFSSYAISWVRQAPGQGLEWMGSIIPIFGTANYAQKFQGRVTITADESTSTAYMELSSLRSEDTAVYYCARERRYDGYYYYYGMDVWGQGTTVTVSS VL: DIQMTQSPSSLSASVGDRVTITCRASQSISSYLNWYQQKPGKAPKLLIYAASSLQSGVPSRFSGSGSGTDFTLTISSLQPEDFATYYCQQKASLPFTFGGGTKVEIK ... condition met
S-48 (antibody, V domains shown, IgG) VH: QVQLVESGGGVVQPGRSLRLSCAASGFTFSSYGMHWVRQAPGKGLEWVAVISYDGSNKYYADSVKGRFTISRDNSKNTLYLQMNSLRAEDTAVYYCARESGDRATLVYYYYYGMDVWGQGTTVTVSS VL: EIVMTQSPATLSVSPGERATLSCRASQSVSSNLAWYQQKPGQAPRLLIYSASTRATGIPARFSGSGSGTEFTLTISSLQSEDFAVYYCQQYNSWPITFGGGTKVEIK ... condition not met
S-26 (antibody, V domains shown, IgG) VH: EVQLVESGGGLVKPGGSLRLSCAASGFTFSSYSMNWVRQAPGKGLEWVSSISSSSSYIYYADSVKGRFTISRDNAKNSLYLQMNSLRAEDTAVYYCARDRLGRGYKWNWFDPWGQGTLVTVSS VL: DIQMTQSPSSVSASVGDRVTITCRASQGIDSWLAWYQQKPGKAPKLLIYAASSLQSGVPSRFSGSGSGTDFTLTISSLQPEDFATYYCQQGNSLPPITFGGGTKVEIK ... condition met

Turning now to a further record.
Prompt: Check the entry S-76 (antibody, V domains shown, IgG) VH: QVQLQESGPGLVKPSQTLSLTCTVSGGSISSGGYYWSWIRQHPGKGLEWIGSIYYSGSTYYNPSLKSRVTISVDTSKNQFSLKLSSVTAADTAVYYCARGVGIQQQLVLGFDPWGQGTLVTVSS VL: DIQMTQSPSSLSASVGDRVTITCRASQSISSFLNWYQQKPGKAPKLLISAASSLQSGVPSRFSGSGSGTDFTLTISSLQPEDFATYYCQQSYREPITFGGGTKVEIK : does MFI equal or exceed 20000?
Response: condition not met
